# experiment-description: chemical genetic growth profiling, strain panel (AID 1159580);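 further: tested at 20 µM; growth read once vehicle control cultures reached saturation at 30 °C; 1 = growth at the plate median or of vehicle wells; lower values mean less growth of the strain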
# study-conditions: S. cerevisiae deletion strains, growth OD, locus YCR088W, strain abp1, stronger effect = lower value
Among all 5,500 compounds or so, about 2,000 (36%) were called active. Roughly 18% stayed inconclusive and do not appear here. This is one part of the list.
property-label: normalized growth
When you answer, write just the number.

Answer with the recorded normalized growth of CCC(=O)O[C@H]1CCC2C3CCc4cc(O)ccc4C3CC[C@@]21C (stereo not given in full) only.
0.991

Answer with the recorded normalized growth of CC(=O)Oc1ccc2c(c1)CCC1C2CC[C@@]2(C)C1CC[C@@H]2OC(C)=O (stereo not given in full) only.
0.978

Answer with the recorded normalized growth of CC(=O)O[C@H]1CC2CCC3C(CC[C@@]4(C)C3C[C@H]([N+]3(C)CCCCC3)[C@@H]4OC(C)=O)[C@@]2(C)C[C@@H]1[N+]1(C)CCCCC1 (stereo not given in full) only.
1.01

Answer with the recorded normalized growth of CCCCC(=O)O[C@H]1CCC2C3CCc4cc(O)ccc4C3CC[C@@]21C (stereo not given in full) only.
1.01

Answer with the recorded normalized growth of CC(=O)OC1CCC2C3CCc4cc(O)ccc4C3CCC12C (stereo not given) only.
0.957

====

# experiment-description: chemical genetic growth profiling, strain panel (AID 1159580);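 further: tested at 20 µM; growth read once vehicle control cultures reached saturation at 30 °C; 1 = growth at the plate median or of vehicle wells; lower values mean less growth of the strain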
# study-conditions: S. cerevisiae deletion strains, growth OD, locus YLL026W
About 2,000 (36%) of roughly 5,500 compounds were called active. Another 18% or so got no clear call; they are omitted. Cut-off read from the data, not from the text of the source: active = normalized growth mostly below about 0.91 (no sharp cut-off); inconclusive = no clear call, values can overlap the other calls; inactive = mostly above about 0.92. Some of the results follow.
Entry note: the call must match one of active, inactive

Record request — test call for OC[C@@H](O)C(O[C@@H]1O[C@H](CO)[C@H](O)[C@H](O)[C@H]1O)[C@H](O)[C@@H](O)CO (stereo partly specified)
inactive

Record request — test call for "O=c1ccc2cc(O[C@@H]3O[C@H](CO)[C@@H](O)[C@H](O)[C@H]3O)c(O)cc2o1"
inactive

Record request — test call for "Cc1cc(C)nc(NS(=O)(=O)c2ccc(N)cc2)n1"
inactive

Record request — test call for "CC(C)=CCC1=C(O)c2ccccc2C(=O)C1=O"
active

Record request — test call for CC1=C2CCC3C(CC[C@]4(C)C(=O)CCC34)[C@@]2(C)CCC1=O (stereo partly specified)
inactive

Record request — test call for "O=C(O)c1cccc(O)c1O"
inactive

Record request — test call for "CC(C)=CCOc1c2occc2cc2ccc(=O)oc12"
inactive

Record request — test call for C[C@]12CCC3C(CC[C@H]4C[C@@H](O)CC[C@]34C)C1CCC2=O (stereo partly specified)
inactive

Record request — test call for "Cn1c([N+](=O)[O-])cnc1COC(N)=O"
inactive

Record request — test call for "COc1cc2ccc(=O)oc2c(OC)c1OC"
inactive

Record request — test call for "CCS(=O)(=O)CCn1c([N+](=O)[O-])cnc1C"
inactive

====

# experiment-description: chemical genetic growth profiling, strain panel (AID 1159580);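 further: tested at 20 µM; growth read once vehicle control cultures reached saturation at 30 °C; 1 = growth at the plate median or of vehicle wells; lower values mean less growth of the strain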
# study-conditions: S. cerevisiae deletion strains, growth OD, locus YDR335W, strain msn5, stronger effect = lower value
The campaign covered roughly 5,500 compounds. About 2,000 (36%) were called active. Inconclusive results (about 18%) are left out. Some of the results follow.
property-label: normalized growth
When you answer, write just the number.

Answer with the recorded normalized growth of "O=C(O)CCCN1C(=O)c2cccc3cccc(c23)C1=O" only.
1.01

Answer with the recorded normalized growth of "COc1cc2c(cc1-c1coc3c4c(c(OC)cc3c1=O)OC(C)(C)C=C4)OCO2" only.
1.03

Answer with the recorded normalized growth of "CC(C)=CCc1c(O)cc2occ(-c3ccc4c(c3)OCO4)c(=O)c2c1O" only.
0.917

Answer with the recorded normalized growth of "CCCc1nc(C(C)(C)O)c(C(=O)OCc2oc(=O)oc2C)n1Cc1ccc(-c2ccccc2-c2nn[nH]n2)cc1" only.
0.952

Answer with the recorded normalized growth of "c1coc(CNc2ncnc3nc[nH]c23)c1" only.
1.01

Answer with the recorded normalized growth of "Nc1ncnc2nc[nH]c12" only.
0.984

Answer with the recorded normalized growth of "Cn1c(=O)[nH]c(=O)c2[nH]cnc21" only.
0.997

Answer with the recorded normalized growth of "N#Cc1ccc2c(c1)N(CCCN1CCC(O)CC1)c1ccccc1S2" only.
0.996

Answer with the recorded normalized growth of "COc1ccc2c(=O)c(-c3cc4c(cc3OC)OCO4)coc2c1" only.
1.01

Answer with the recorded normalized growth of "COc1ccc(Cc2nccc3cc(OC)c(OC)cc23)cc1OC" only.
0.999

Answer with the recorded normalized growth of "COc1ccc2[nH]cc(CCNC(C)=O)c2c1" only.
0.977

Answer with the recorded normalized growth of CCOC(=O)C1=C(C)NC(C)=C(C(=O)OC)C1c1cccc([N+](=O)[O-])c1 (configuration not stated) only.
1.02

Answer with the recorded normalized growth of "O=C(O)c1cccc(O)c1O" only.
1.02

Answer with the recorded normalized growth of "COc1c2c(cc3occ(-c4ccc5c(c4)OCO5)c(=O)c13)OC(C)(C)C=C2" only.
1.02

Answer with the recorded normalized growth of "COc1cc2ccc(=O)oc2c2ccoc12" only.
0.896

Answer with the recorded normalized growth of CC(=O)OC1CCC23C(=O)OC45CCC(C6=CC(=O)OC6)C4(C)CCC2C5CCC3(O)C1 (configuration not stated) only.
0.992

Answer with the recorded normalized growth of "Cc1ncc([N+](=O)[O-])n1CCO" only.
0.971

Answer with the recorded normalized growth of "Cc1cccc(N(C)C(=S)Oc2ccc3ccccc3c2)c1" only.
1.01

Answer with the recorded normalized growth of "NCCS" only.
0.991

Answer with the recorded normalized growth of C[C@]12CCC3C(CC[C@H]4CC(=O)CC[C@]34C)C1CCC2=O (some centres not stated) only.
0.932

Answer with the recorded normalized growth of "Cc1cc(C)nc(NS(=O)(=O)c2ccc(N)cc2)n1" only.
0.977

Answer with the recorded normalized growth of "COc1c2occc2cc2ccc(=O)oc12" only.
0.982

Answer with the recorded normalized growth of "c1ccc2c(c1)[nH]c1cnccc12" only.
0.999

Answer with the recorded normalized growth of "COc1ccc2c(c1)[nH]c1c(C)nccc12" only.
0.994

Answer with the recorded normalized growth of "O=c1[nH]cnc2nc[nH]c12" only.
1.02

Answer with the recorded normalized growth of "N#C/C(=C\c1ccc(O)cc1)C(=O)O" only.
1

Answer with the recorded normalized growth of CC(C)CCCC(C)[C@H]1CCC2C3CC[C@H]4CC(=O)CC[C@]4(C)C3CC[C@@]21C (some centres not stated) only.
0.97

Answer with the recorded normalized growth of "CC1(C)C=Cc2c(cc3occ(-c4ccc5c(c4)OCO5)c(=O)c3c2O)O1" only.
0.978

Answer with the recorded normalized growth of "O=C(CCCN1CC=C(n2c(=O)[nH]c3ccccc32)CC1)c1ccc(F)cc1" only.
0.979

Answer with the recorded normalized growth of COc1cc(OC)c2c(c1Cl)OC1(C2=O)C(O)=CC(=O)CC1C (configuration not stated) only.
1.02

Answer with the recorded normalized growth of C[C@]12C=CC(=O)C=C1CCC1C2C(=O)C[C@@]2(C)C1CC[C@]2(O)C(=O)CO (some centres not stated) only.
0.997

Answer with the recorded normalized growth of C[N+]1(C)C2CC[C@H]1CC(OC(=O)C(O)c1ccccc1)C2 (some centres not stated) only.
1

Answer with the recorded normalized growth of "FC(F)(F)COCC(F)(F)F" only.
1.03

Answer with the recorded normalized growth of CCOc1nc2cccc(C(=O)OC(C)OC(=O)OC3CCCCC3)c2n1Cc1ccc(-c2ccccc2-c2nn[nH]n2)cc1 (configuration not stated) only.
1.03

Answer with the recorded normalized growth of "CN1CCN(C(c2ccccc2)c2ccccc2)CC1" only.
0.994

Answer with the recorded normalized growth of OC[C@@H](O)C(O[C@@H]1O[C@H](CO)[C@H](O)[C@H](O)[C@H]1O)[C@H](O)[C@@H](O)CO (some centres not stated) only.
0.987

Answer with the recorded normalized growth of "CC(C)=CCC1=C(O)c2ccccc2C(=O)C1=O" only.
0.514

Answer with the recorded normalized growth of "COc1cc(OC)c2c(=O)c(-c3ccc4c(c3)OCO4)coc2c1" only.
1

Answer with the recorded normalized growth of COC(=O)C[C@H]1C(C)(C)[C@@H](OC(C)=O)[C@@H]2CC3C4CC(=O)O[C@@H](c5ccoc5)[C@]4(C)CCC3[C@@]1(C)C2=O (some centres not stated) only.
1.04

Answer with the recorded normalized growth of CCCCC(=O)O[C@H]1CCC2C3CCc4cc(O)ccc4C3CC[C@@]21C (some centres not stated) only.
1.02

Answer with the recorded normalized growth of CC(C(=O)O)c1ccc(N2Cc3ccccc3C2=O)cc1 (configuration not stated) only.
0.993

Answer with the recorded normalized growth of C[C@]12CCC3C(CC[C@H]4C[C@@H](O)CC[C@]34C)C1CCC2=O (some centres not stated) only.
1.02

Answer with the recorded normalized growth of "O=c1[nH]c2ccccc2n1C1CCN(CCCC(c2ccc(F)cc2)c2ccc(F)cc2)CC1" only.
0.959

Answer with the recorded normalized growth of "CCNc1nc(Cl)nc(NC(C)C)n1" only.
1.01

Answer with the recorded normalized growth of Cn1nnnc1SCC1=C(C(=O)O)N2C(=O)C(NC(=O)C(OC=O)c3ccccc3)C2SC1 (configuration not stated) only.
1

Answer with the recorded normalized growth of "Cc1nccc2c1[nH]c1ccccc12" only.
0.975

Answer with the recorded normalized growth of "COc1ccc2c(=O)c(CC(=O)O)coc2c1" only.
0.987
